- Run description: Pharmacokinetic study of Example 3 in mouse (IV, IP)
- Assay type: in vivo, C57 Mouse
- Stated conditions: C57, mouse, plasma, intravenous, 5 mg/kg, 5 mg/kg IV; 2.00 h; individual animals 101M-103M; read-out: Plasma concentrations
Assay endpoint: concentration at 2 h
Please provide the amount together with its unit, number first.

Which measured concentration at 2 h value corresponds to Cc1ccc(Nc2nc(N/N=C/c3c[nH]c4ccccc34)cc(N3CCOCC3)n2)cc1 ? 309 ng/mL

---

- Run description: Pharmacokinetic study of Example 1 in mouse (IV, IP, PO)
- Assay type: in vivo, Male C57BL/6 Mouse
- Stated conditions: male, C57BL/6, mouse, plasma, ip, 30 mg/kg, IP 30 mg/kg; individual mice M4-M6; read-out: T1/2 (converted)
Assay endpoint: half-life (h)
Give bare numbers, in h.

Which measured half-life value corresponds to Cc1ccc(Nc2nc(N/N=C/c3c[nH]c4ccccc34)nc(N3CCOCC3)n2)cc1 ? 10.9
